Data origin: paper PMC8699515

Biological target: T1, C-reactive protein (CRP) from human pleural fluid (Homo sapiens, UniProt P02741)
T1 construct: C-reactive protein, human, purified from pleural fluid; source: bought: LEE Biosolutions (from human pleural fluid)
T1 sequence (P02741 19-224): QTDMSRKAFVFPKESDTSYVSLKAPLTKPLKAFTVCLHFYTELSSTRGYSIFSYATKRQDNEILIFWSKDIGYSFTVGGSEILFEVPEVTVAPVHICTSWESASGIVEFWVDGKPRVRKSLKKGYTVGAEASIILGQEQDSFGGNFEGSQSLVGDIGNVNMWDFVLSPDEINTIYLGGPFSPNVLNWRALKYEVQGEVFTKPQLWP
Experiment: BLI; Octet K2; CRP (25 nM) in PBS immobilised on aminopropylsilane (APS) tips, blocked with 1% BSA/PBS; nanobodies 10-1200 nM in 0.1% BSA/PBS; 30 C; 1:1 model, global fit
Settings: both partners purified
Measured Kd by item

- binder: "anti-CRP nanobody A6 fused to 6xHis-SpyTag (VHH, pET14-derived vector) VHH: EVQLQASGGGLVRPGGSLRLSCAVSGGTLSNYAVGWFRRAPGNQRELVATFTSGGTTLYADSVKGRFTISRDNLKNTVYLQMNSLKPEDTAVYYCAAKPGRASSQATDYDAWGQGTQVTVSS"
  Kd [nM]: 51
- binder: "anti-CRP nanobody E12 fused to 6xHis-SpyTag (VHH, pET14-derived vector; In the biosensor it was held by SpyCatcher attached to the gold electrode) VHH: EVQLQASGGGLVQAGGSLRLSCAASRRPSSFKVMGWYRQAPGKQRELVARITSGGSTDYADSVKGRFTISRDNAKNTVYLQMNSLEPEDTAVYYCNAYRWGRDNWGQGTQVTVSS"
  Kd [nM]: 13
- binder: "anti-CRP nanobody H7 fused to 6xHis-SpyTag (VHH, pET14-derived vector) VHH: EVQLQASGGGLVQAGGSLRLSCAASGRTFSSYATGWYRQAPGKERELVAAISSGGSTYYADSVKGRFTISRDNAKNTVYLQMNSLKAEDTAVYYCAGGRRVGVLIGNEYDYWGQGTLVTVSS"
  Kd [nM]: 154
- binder: "anti-CRP nanobody A12 fused to 6xHis-SpyTag (VHH, pET14-derived vector) VHH: EVQLQASGGGLVQAGGSLGLSCAASTRAFSTYAMGWFRQVPGKEREFVAAISSGGSTVYADSVKGRFTISRDNAKNTVYLQMNNLRPEDTAVYYCAARQGIVVRSPTRMDYWGQGTQVTVSS"
  Kd [nM]: 122
